# System: UO-31 renal
# EXPERIMENT NOTES: NCI tumour cell line growth inhibition, 48 h

MOLECULE	TARGET OR SYSTEM	TGI
O=C(O)CCSC(=O)Nc1ccccc1Cl	UO-31 renal	> 100 µM
CC(=O)NC(CCCCN(Cc1ccccc1)C(=O)N(CCCl)N=O)C(=O)NCc1ccccc1 (stereo not drawn)	UO-31 renal	57.2 µM
COC(=O)c1c2c(cc3c1CC1(Cc4cc5c(cc4C1)CCC5)C3)CCC2	UO-31 renal	> 100 µM
BrCC(Br)(c1ccccc1)c1ccccc1-c1cc(-c2ccccc2)cc(-c2ccccc2)n1 (stereo not drawn)	UO-31 renal	26.8 µM
O=C(Nn1cnn2c(=O)c3ccccc3nc2c1=O)c1ccccc1	UO-31 renal	> 100 µM
CC1OC(O[C@H]2CC[C@]3(C=O)[C@H]4CC[C@]5(C)[C@H](C6=CC(=O)OC6)CC[C@]5(O)[C@@H]4C=C[C@]3(O)C2)CC(O)C1O (stereo partly drawn)	UO-31 renal	0.546 µM
Cn1nc(-c2ccccc2)c(C(=O)/C=C/c2ccc(F)cc2)c(N2CCOCC2)c1=O	UO-31 renal	25.6 µM
CC(=O)Oc1c2oc3cc(O)c(O)cc3c2c(OC(C)=O)c2oc3cc(O)c(O)cc3c12	UO-31 renal	42 µM
C=CCc1cccc(/C=N\N=C(/N)NO)c1O	UO-31 renal	6.69 µM
COC(=O)c1ccc2c(c1)c1c(C)c3ccncc3c(C)c1n2C	UO-31 renal	77.5 µM
CC[C@@H](/C=C\CCC1(C[C@@H](N)CCC=C(C)C)OCCO1)O[Si](C(C)C)(C(C)C)C(C)C	UO-31 renal	32.3 µM
O=C(Nc1nc(-c2ccc(Cl)cc2)nc2c1sc(=S)n2-c1ccccc1)C(F)(F)F	UO-31 renal	4.04 µM
CCCCCCCCCCCCCC(=O)OCC1OC(n2cc(F)c(=O)[nH]c2=O)C(N)C(OC(=O)CCCCCCCCCCCCC)C1O (stereo not drawn)	UO-31 renal	> 100 µM
NC(N)=NS(=O)(=O)c1ccc(NC(=O)c2ccc3[nH]c4ccccc4c(=O)c3c2)cc1	UO-31 renal	> 100 µM
COc1ccc(N2C(=O)/C(=C\c3cccc(Oc4ccccc4)c3)SC2c2ccccc2)cc1 (stereo not drawn)	UO-31 renal	> 100 µM
COC(=O)c1c(C(=O)OC)c2c3ccccc3n(C)c2c2c1c1ccccc1n2C	UO-31 renal	> 100 µM
O=C(CN(c1ccc(S(=O)(=O)O)cc1)c1ccc(S(=O)(=O)O)cc1)Nn1cnc2ccc(S(=O)(=O)N(c3ccc(S(=O)(=O)O)cc3)c3ccc(S(=O)(=O)O)cc3)cc2c1=O	UO-31 renal	> 100 µM
NC(=O)C(Nc1ccc(Cl)cc1)c1cc2cc(Br)ccc2nc1Cl (stereo not drawn)	UO-31 renal	> 50 µM
C=C1NC(=O)C(CC(C(=O)C(=O)Nc2c(C)cccc2C(C)(C)C)C(=O)c2ccc3ccccc3c2)C(=O)N1 (stereo not drawn)	UO-31 renal	> 100 µM
CCN(CC)CCNc1ccc(C)c2sc3ccccc3c(=O)c12	UO-31 renal	3 µM
CCOC(=O)NC(=S)c1ccc(O)c2ccccc12	UO-31 renal	> 100 µM
O=C(/C=C/c1ccc(O)c(O)c1)NCCc1ccc(-c2ccccc2)cc1	UO-31 renal	> 100 µM
CC(CCCC1SCC2NC(=O)NC21)C(=O)O (stereo not drawn)	UO-31 renal	> 100 µM
CC(O)CN1c2ccccc2Sc2ccc(Cl)cc21 (stereo not drawn)	UO-31 renal	> 10 µM
Cc1nc(Nc2ccccc2)sc1C(=O)CC(=O)C(=O)NC12CC3CC(CC(C3)C1)C2	UO-31 renal	> 100 µM
O=C(c1ccccc1)c1c(CC(O)c2ccccc2)n(C(=O)c2ccccc2)c2ccccc12 (stereo not drawn)	UO-31 renal	60.6 µM
CCCN1C(=O)/C(=C/c2ccc(O)cc2)SC1=Nc1ccc(OC)cc1	UO-31 renal	> 100 µM
O=C(Nc1cccc(Cl)c1)c1cc(N=Nc2ccc([N+](=O)[O-])cc2Cl)ccc1O	UO-31 renal	6.08 µM
N#CCCN(CCC#N)c1ccc(/C=C2\N=C(c3cc([N+](=O)[O-])ccc3Cl)N(NC(=O)CC(=O)Nc3ccccc3Cl)C2=O)cc1	UO-31 renal	> 100 µM
CO[C@@H]1[C@H]2[C@@H](C)c3ccoc3C[C@@H]2[C@@]2(C)CC[C@H](OC(=O)c3ccccc3)[C@](C)(C(=O)O)[C@]2(O)[C@@H]1OC(=O)c1ccccc1	UO-31 renal	> 50 µM
COc1ccc(/C=C2/CCS(=O)(=O)c3ccc(C)cc3C2=O)cc1OC	UO-31 renal	20.1 µM
Cc1ccc(/C=C(\C#N)c2ccccc2)cc1	UO-31 renal	> 100 µM
O=C(O)CCC(NC(=O)c1ccc(CNc2nc3ccccc3nc2C(=O)O)cc1)C(=O)O (stereo not drawn)	UO-31 renal	> 100 µM
C=C1CCC2C3(C)COC(c4ccc(Cl)cc4)OC3CCC2(C)C1/C=C/C1=CCOC1=O (stereo not drawn)	UO-31 renal	> 100 µM
CCOc1c(C#N)c2c(N)ncnc2n1C1OC(CO)C(O)C1O (stereo not drawn)	UO-31 renal	> 40.3 µM
C[C@]12CC[C@@H]3c4ccc(OCCN5CCCC5)cc4CC[C@H]3[C@@H]1CCC2=O	UO-31 renal	61.9 µM
C[N+](C)([O-])Cc1cc(-c2ccccc2)ccc1O	UO-31 renal	> 100 µM
COc1ccc(/C=C2\CC(C)CC3C2=NN(c2ccccc2)C3c2ccc(OC)c(OC)c2)cc1OC (stereo not drawn)	UO-31 renal	> 100 µM
